# Tested Target: T1, LILRA5-His (Acro, LI5-H82E1) (human, UniProt A6NI73 42-268)
# T1 construct: Bought protein. 'Human' stands at the head of the list of coated proteins; not shown: His tag
# T1 sequence (A6NI73 42-268 limits assumed): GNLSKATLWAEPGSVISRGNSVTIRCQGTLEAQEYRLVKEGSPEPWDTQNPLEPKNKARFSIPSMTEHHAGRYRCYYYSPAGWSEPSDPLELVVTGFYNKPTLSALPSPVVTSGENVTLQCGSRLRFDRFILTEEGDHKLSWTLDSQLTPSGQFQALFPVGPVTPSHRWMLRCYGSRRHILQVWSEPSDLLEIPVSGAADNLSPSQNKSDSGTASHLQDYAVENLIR
# Test: ELISA, coated protein 1 µg/mL, antibody 10 µg/mL
Readings of absorbance at 450 nm for the listed binders
Give your result in absorbance at 450 nm as a bare value.

Worked cases, answers included:
Query :: For the binder shown here, humanized antibody huP2-E3 (antibody, human IgG4 S228P, kappa, F234A L235A, V domains shown, Full chains; The constant region is hIgG1(LALA) or hIgG4(LALA) with a kappa CL; also called P2-E3H6L2) VH: EVQLVQSGAEVKKPGASVKVSCKASGYTFTDYYMNWVKQAPGQRLEWMGDINPNSGGTSYNQKFKGRVTITVDKSGSTAYMELSSLRSEDTAVYYCARGGVTTVVATYWYFDVWGQGTTVTVSS VL: DIQMTQSPSSLSASVGDRVTITCRASENIYSNLAWYQQKPGKSPKLLVYAATNVADGVPSRFSGSGSGTDYTLTISSLQPEDFATYYCQQFWDTPFTFGQGTKLEIKR , give the reported absorbance at 450 nm.
Result :: 0.0466

Query :: Returns the measured absorbance at 450 nm for the input binder. Input: humanized antibody huP2-C6 (antibody, human IgG1, kappa, L234A L235A, V domains shown, Full chains; also called P2-C6H7L1) VH: EVQLVQSGAEVKKPGASVKVSCKASGYTFTDYYIHWVRQAPGQGLEWMGYIYPDTGYSGYNQKFKGRVTMTVDKSTSTAYMELRSLRSDDTAVYYCTRRGDYSGVHFDYWGQGTTVTVSS VL: DIVLTQSPDSLAVSLGERATINCRASESVNNYGVGFLHWYQQKPGQPPKLLIYRASTLESGIPDRFSGSGSGTDFTLTISSLQAEDVAVYYCQHSYKDPPWTFGGGTKVEIKR
Result :: 0.0598

Query :: Consider the binder humanized antibody huP2-E8 (antibody, human IgG4 S228P, kappa, F234A L235A, V domains shown, Full chains; also called P2-E8H4L1) VH: EVQLVESGGGLVKPGGSLRLSCAASGFTFSDYGIHWVRQAPGKGLEWVAYISSGSSIHNYADTVKGRFTISRDNAKNSLYLQMNSLRAEDTAVYYCARGPNYYGSSYLLVYWGQGTLVTVSS VL: DIQMTQSPSSLSASVGDRVTITCKASQDVNIAVAWYQQKPGKAPKLLIYSASYRYTGVPSRFSGSGSGTDFTFTISSLQPEDIATYYCQQHYNIPWTFGGGTKVEIKR and give its measured absorbance at 450 nm.
Result :: 0.0467

Moving on to the next binder.
Query :: GET /values?readout=absorbance at 450 nm&item= humanized antibody huP2-G9 (antibody, human IgG1, kappa, L234A L235A, V domains shown, Full chains; also called P2-G9H1L2) VH: EVQLQESGPGLVKPSQTLSLTCTVSGSSITSGYYWNWIRQHPGKGLEWIGYLSYDGSNNYNPSLKNLVTISRDTSKNQFSLKLSSVTAADTAVYYCAREGAHYSGTLSWFAYWGQGTLVTVSS VL: DIQMTQSPSSLSASVGDRVTITCRASENIYSNLAWYQQKPGKSPKLLVYAATNLADGVPSRFSGSGSGTDYTLTISSLQPEDFATYYCQHFWDTPYTFGGGTKVEIKR
Result :: 0.0441

Attribution: patent EP4585618A1
